Please provide measured CC50 for the entries that follow.
system: MV4-11 cells; assay: Cell viability assay (CellTiter-Glo, CTG protocol), MV4-11; assay type: cell-based; settings: Homo sapiens, MV4-11 (MCL-1 dependent AML line), 24 hours incubation, 1% FBS, read-out: Average pCC50 by molecule MV4-11 (converted)

Look over these answered cases.
- COMPOUND: "CC(=O)OCOC(=O)c1c(CCCOc2cccc3cc(F)ccc23)c2ccc(Cl)c(-c3c(C)nn(C)c3C)c2n1CCN1CCN(C(=O)COc2cccc3c2CN(C2CCC(=O)NC2=O)C3=O)CC1 (centres unmarked)"
  CC50: "< 1 nM"
- COMPOUND: "COCCOCC(=O)OCOC(=O)c1c(CCCOc2cccc3cc(F)ccc23)c2ccc(Cl)c(-c3c(C)nn(C)c3C)c2n1CCN1CCN(C(=O)COc2cccc3c2CN(C2CCC(=O)NC2=O)C3=O)CC1 (centres unmarked)"
  CC50: "< 10 nM"
- COMPOUND: "CC(=O)OC(C)OC(=O)c1c(CCCOc2cccc3cc(F)ccc23)c2ccc(Cl)c(-c3c(C)nn(C)c3C)c2n1CCN1CCN(C(=O)COc2cccc3c2CN(C2CCC(=O)NC2=O)C3=O)CC1 (centres unmarked)"
  CC50: "< 10 nM"

# batch: return CC50 for each of the 2 compounds below
1. Cc1nn(C)c(C)c1-c1c(Cl)ccc2c(CCCOc3cccc4cc(F)ccc34)c(C(=O)OC(C)OC(=O)OC(C)C)n(CCN3CCN(C(=O)COc4cccc5c4CN(C4CCC(=O)NC4=O)C5=O)CC3)c12 (centres unmarked)
2. Cc1nn(C)c(C)c1-c1c(Cl)ccc2c(CCCOc3cccc4cc(F)ccc34)c(C(=O)OCOC(=O)CCO)n(CCN3CCN(C(=O)COc4cccc5c4CN(C4CCC(=O)NC4=O)C5=O)CC3)c12 (centres unmarked)

Solution:
1: < 31.6 nM; 2: < 3.16 nM

---

biological target: CRBN (Homo sapiens, UniProt Q96SW2); construct: host or cells: HEK293 (NanoLuc CRBN HEK293 cells); experiment: NanoBRET In-cell CRBN Target Engagement Assay (live and lytic mode), NanoLuc CRBN HEK293 cells; format: cell-based; conditions: live mode, intact cells, 2 hours at 37° C.; read-out: pIC50 (live) (converted)
Sequence (Q96SW2 whole entry): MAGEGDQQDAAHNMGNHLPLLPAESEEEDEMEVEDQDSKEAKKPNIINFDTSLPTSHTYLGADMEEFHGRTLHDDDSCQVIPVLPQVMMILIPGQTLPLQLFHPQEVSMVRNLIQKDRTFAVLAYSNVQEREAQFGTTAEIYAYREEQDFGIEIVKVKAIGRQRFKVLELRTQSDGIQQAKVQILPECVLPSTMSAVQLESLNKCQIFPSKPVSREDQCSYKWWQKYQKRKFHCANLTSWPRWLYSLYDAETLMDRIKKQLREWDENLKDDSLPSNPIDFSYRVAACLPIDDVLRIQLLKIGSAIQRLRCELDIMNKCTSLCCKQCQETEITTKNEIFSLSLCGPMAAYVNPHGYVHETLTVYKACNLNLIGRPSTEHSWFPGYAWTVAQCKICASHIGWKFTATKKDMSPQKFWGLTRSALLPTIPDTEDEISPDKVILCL
OBSERVED_PROPERTY: IC50 (µM)
One number for each entry, in µM.

# example entries with known answers
- COMPOUND: "Cc1nn(C)c(C)c1-c1c(Cl)ccc2c(CCCOc3cccc4cc(F)ccc34)c(C(=O)OCOC(=O)C(C)(C)C)n(CCN3CCN(C(=O)COc4ccc5c(c4)n(C)c(=O)n5C4CCC(=O)NC4=O)CC3)c12 (stereo not shown)"
  IC50 [µM]: 0.0126
- COMPOUND: "Cc1nn(C)c(C)c1-c1c(Cl)ccc2c(CCCOc3cccc4cc(F)ccc34)c(C(=O)OCOC(=O)C(C)(C)C)n(CCN3CCN(C(=O)Cn4c(C)nc5c(C(=O)NC6CCC(=O)NC6=O)cccc54)CC3)c12 (stereo not shown)"
  IC50 [µM]: 0.0251
- COMPOUND: "CC(=O)OCOC(=O)c1c(CCCOc2cccc3cc(F)ccc23)c2ccc(Cl)c(-c3c(C)nn(C)c3C)c2n1CCN1CCN(C(=O)COc2cccc3c2CN(C2CCC(=O)NC2=O)C3=O)CC1 (stereo not shown)"
  IC50 [µM]: 0.00794

Let us examine a further case.
Problem: Which IC50 is reported for this compound? Cc1nn(C)c(C)c1-c1c(Cl)ccc2c(CCCOc3cccc4cc(F)ccc34)c(C(=O)OCOC(=O)C(C)(C)C)n(CCN3CCN(C(=O)COc4cccc5c4n(C)c(=O)n5C4CCC(=O)NC4=O)CC3)c12 (stereo not shown)
Solution: 0.00631
